Target: SARS-CoV PL^pro (Severe acute respiratory syndrome coronavirus)
Experiment: biochemical
Assay type: binding
Settings: read-out: association rate constant ka
As shown below, each of these compounds has a reported kon value.
REPORTED ENDPOINT: kon

{"GIVEN SMILES": "COc1cc(O)ccc1CCCc1cc(O)c(O)c(CC=C(C)C)c1CC=C(C)C", "TEST TARGET": "SARS-CoV PL^pro (Severe acute respiratory syndrome coronavirus)", "MEAS VALUE": "7.3 M⁻¹ s⁻¹"}
{"GIVEN SMILES": "CC(C)=CCc1cc(C(=O)/C=C/c2ccc(O)c(O)c2)c(O)cc1O", "TEST TARGET": "SARS-CoV PL^pro (Severe acute respiratory syndrome coronavirus)", "MEAS VALUE": "29.9 M⁻¹ s⁻¹"}
{"GIVEN SMILES": "CC(C)=CCc1cc(-c2oc3cc(O)c(CC=C(C)C)c(O)c3c(=O)c2O)cc(O)c1O", "TEST TARGET": "SARS-CoV PL^pro (Severe acute respiratory syndrome coronavirus)", "MEAS VALUE": "21 M⁻¹ s⁻¹"}
{"GIVEN SMILES": "CC(C)=CCc1cc(C(=O)/C=C/c2ccc(O)cc2)c(O)cc1O", "TEST TARGET": "SARS-CoV PL^pro (Severe acute respiratory syndrome coronavirus)", "MEAS VALUE": "56 M⁻¹ s⁻¹"}

----------
As shown below, each of these molecules has a reported pIC50 value.
Biological target: UniProtKB K9N7C7
Assay: biochemical
pIC50: −log10 of the molar value.
REPORTED ENDPOINT: pIC50

{"MOLECULE": "CC(C)=CCc1cc([C@@H]2CCc3ccc(O)cc3O2)c(CC=C(C)C)c(O)c1O [Compound 6, kazinol A]", "REPORTED ENDPOINT": "pIC50", "MEAS VALUE": 4.05}
{"MOLECULE": "CC1(C)C=Cc2cc(C(=O)/C=C/c3ccc(O)cc3)c(O)cc2O1 [Compound 3, 4-hydroxyisolonchocarpin]", "REPORTED ENDPOINT": "pIC50", "MEAS VALUE": 3.77}
{"MOLECULE": "CC(C)=CCc1c([C@@H]2CCc3ccc(O)cc3O2)cc2c(c1O)OC(C)(C)C=C2 [Compound 7, kazinol B]", "REPORTED ENDPOINT": "pIC50", "MEAS VALUE": 4.02}
{"MOLECULE": "CC(C)=CCc1cc(-c2oc3cc(O)c(CC=C(C)C)c(O)c3c(=O)c2O)cc(O)c1O [Compound 4, papyriflavonol A]", "REPORTED ENDPOINT": "pIC50", "MEAS VALUE": 3.95}
{"MOLECULE": "CC(C)=CCc1c(CCCc2ccc(O)cc2O)cc(O)c(O)c1CC=C(C)C [Compound 9, kazinol F]", "REPORTED ENDPOINT": "pIC50", "MEAS VALUE": 4.40}
{"MOLECULE": "CC(C)=CCc1cc(C(=O)/C=C/c2ccc(O)cc2)c(O)cc1O [Compound 1, broussochalcone B]", "REPORTED ENDPOINT": "pIC50", "MEAS VALUE": 3.95}
{"MOLECULE": "CC(C)=CCc1c([C@@H]2CCc3ccc(O)cc3O2)cc2c(c1O)OC(C)(C)C(O)C2O (some centres unmarked) [Compound 8, broussoflavan A]", "REPORTED ENDPOINT": "pIC50", "MEAS VALUE": 4.31}
{"MOLECULE": "O=c1c(O)c(-c2ccc(O)cc2)oc2cc(O)cc(O)c12 [Kaempferol, kaempferol, reference compound]", "REPORTED ENDPOINT": "pIC50", "MEAS VALUE": 3.68}
{"MOLECULE": "CC(C)=CCc1cc(C2CCc3ccc(O)cc3O2)cc(O)c1O (centres unmarked) [Compound 5]", "REPORTED ENDPOINT": "pIC50", "MEAS VALUE": 4.31}
{"MOLECULE": "COc1cc(O)ccc1CCCc1cc(O)c(O)c(CC=C(C)C)c1CC=C(C)C [Compound 10, kazinol J]", "REPORTED ENDPOINT": "pIC50", "MEAS VALUE": 4.26}
{"MOLECULE": "CC(C)=CCc1cc(C(=O)/C=C/c2ccc(O)c(O)c2)c(O)cc1O [Compound 2, broussochalcone A]", "REPORTED ENDPOINT": "pIC50", "MEAS VALUE": 4.38}

----------
Molecular target: MERS-CoV 3CL^pro (Middle East respiratory syndrome-related coronavirus)
Sequence (K9N7C7 3247-3553 limits assumed): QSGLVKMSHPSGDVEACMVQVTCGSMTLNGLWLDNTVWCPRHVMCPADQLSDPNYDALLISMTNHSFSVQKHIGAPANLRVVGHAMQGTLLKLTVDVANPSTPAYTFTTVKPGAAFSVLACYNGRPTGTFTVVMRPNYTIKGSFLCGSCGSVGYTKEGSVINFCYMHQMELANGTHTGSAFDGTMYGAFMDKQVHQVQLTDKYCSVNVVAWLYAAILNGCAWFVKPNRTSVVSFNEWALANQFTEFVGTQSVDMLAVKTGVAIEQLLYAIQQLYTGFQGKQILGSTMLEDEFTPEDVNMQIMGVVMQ
Experiment: biochemical

{"COMPOUND": "O=c1c(O)c(-c2ccc(O)cc2)oc2cc(O)cc(O)c12 [Kaempferol, kaempferol, reference compound]", "IC50 [µM]": 35.3}
{"COMPOUND": "CC(C)=CCc1c(CCCc2ccc(O)cc2O)cc(O)c(O)c1CC=C(C)C [Compound 9, kazinol F]", "IC50 [µM]": 135}
{"COMPOUND": "CC1(C)C=Cc2cc(C(=O)/C=C/c3ccc(O)cc3)c(O)cc2O1 [Compound 3, 4-hydroxyisolonchocarpin]", "IC50 [µM]": 194}
{"COMPOUND": "CC(C)=CCc1c([C@@H]2CCc3ccc(O)cc3O2)cc2c(c1O)OC(C)(C)C(O)C2O (some centres unmarked) [Compound 8, broussoflavan A]", "IC50 [µM]": 126}
{"COMPOUND": "CC(C)=CCc1cc(C(=O)/C=C/c2ccc(O)c(O)c2)c(O)cc1O [Compound 2, broussochalcone A]", "IC50 [µM]": 36.2}
